# key: entry, value: Growth Percent, SNB-19
# Test system: SNB-19
# assay-notes: NCI 60-cell drug screen, CNS Cancer SNB-19
# Type: cell-based, human
# assay-setup: 1.00E−5 Molar
property-measured: Growth Percent, SNB-19 (%)

1) CCSc1nc2ccc3c(c2[nH]1)C(=O)c1ccccc1C3=O 87.90
2) O=C1c2ccccc2C(=O)c2c1ccc1nc(SCCN3CCCC3)[nH]c21 60.47
3) O=C1c2ccccc2C(=O)c2c1ccc1nc(S)[nH]c21 91.30
4) O=C1c2ccccc2C(=O)c2c1ccc1nc3n(c21)CCS3 74.47
5) CN(C)CCCSc1nc2ccc3c(c2[nH]1)C(=O)c1ccccc1C3=O 79.67
6) CCCSc1nc2ccc3c(c2[nH]1)C(=O)c1ccccc1C3=O 82.03

---

# key: entry, value: Growth Percent, SK-MEL-2
# System: SK-MEL-2
# assay-notes: NCI 60-cell drug screen, Melanoma SK-MEL-2
# Assay type: cell-based, human
# assay-setup: 1.00E−5 Molar
property-measured: Growth Percent, SK-MEL-2 (%)

1. CN(C)CCCSc1nc2ccc3c(c2[nH]1)C(=O)c1ccccc1C3=O 80.03
2. CCSc1nc2ccc3c(c2[nH]1)C(=O)c1ccccc1C3=O 81.65
3. CCCSc1nc2ccc3c(c2[nH]1)C(=O)c1ccccc1C3=O 79.33
4. O=C1c2ccccc2C(=O)c2c1ccc1nc(S)[nH]c21 134.35
5. O=C1c2ccccc2C(=O)c2c1ccc1nc(SCCN3CCCC3)[nH]c21 106.62
6. O=C1c2ccccc2C(=O)c2c1ccc1nc3n(c21)CCS3 99.88

---

# Tested on: GBM8901
# assay-notes: MTT assay, GBM8901 tumor cell
# assay-setup: concentration 10 μM, tumor cell
Label scheme for Cell survival rate (%) GBM8901: lower than 40% is NOT MET, 40% and above is MET.

1) O=C1c2ccccc2C(=O)c2c1ccc1nc(SC(=O)N3CCCC3)[nH]c21 MET
2) O=C1c2ccccc2C(=O)c2c1ccc1nc(S)[nH]c21 MET
3) O=C1c2ccccc2C(=O)c2c1ccc1nc(SCCCCCCCl)[nH]c21 MET
4) O=C1c2ccccc2C(=O)c2c1ccc1nc(SCCCCCl)[nH]c21 MET
5) O=C1c2ccccc2C(=O)c2c1ccc1nc(SC(=O)N3CCCCC3)[nH]c21 MET
6) O=C1c2ccccc2C(=O)c2c1ccc1nc(SCC(=O)N3CCCC3)[nH]c21 NOT MET
7) CCN(CC)C(=O)Sc1nc2ccc3c(c2[nH]1)C(=O)c1ccccc1C3=O MET
8) CCN(CC)C(=O)CCSc1nc2ccc3c(c2[nH]1)C(=O)c1ccccc1C3=O NOT MET
9) CCCSc1nc2ccc3c(c2[nH]1)C(=O)c1ccccc1C3=O MET
10) CCSc1nc2ccc3c(c2[nH]1)C(=O)c1ccccc1C3=O MET
11) CCCN(CCC)C(=O)CSc1nc2ccc3c(c2[nH]1)C(=O)c1ccccc1C3=O NOT MET
12) C=CCSc1nc2ccc3c(c2[nH]1)C(=O)c1ccccc1C3=O MET
13) CN1CCN(C(=O)Sc2nc3ccc4c(c3[nH]2)C(=O)c2ccccc2C4=O)CC1 NOT MET
14) O=C1c2ccccc2C(=O)c2c1ccc1nc(SC(=O)N3CCOCC3)[nH]c21 MET
15) Cc1cc(C(=O)Sc2nc3ccc4c(c3[nH]2)C(=O)c2ccccc2C4=O)c(C)o1 NOT MET
